tgt: hERG K channel (Homo sapiens (Human), UniProt Q12809)
Sequence (Q12809 whole entry): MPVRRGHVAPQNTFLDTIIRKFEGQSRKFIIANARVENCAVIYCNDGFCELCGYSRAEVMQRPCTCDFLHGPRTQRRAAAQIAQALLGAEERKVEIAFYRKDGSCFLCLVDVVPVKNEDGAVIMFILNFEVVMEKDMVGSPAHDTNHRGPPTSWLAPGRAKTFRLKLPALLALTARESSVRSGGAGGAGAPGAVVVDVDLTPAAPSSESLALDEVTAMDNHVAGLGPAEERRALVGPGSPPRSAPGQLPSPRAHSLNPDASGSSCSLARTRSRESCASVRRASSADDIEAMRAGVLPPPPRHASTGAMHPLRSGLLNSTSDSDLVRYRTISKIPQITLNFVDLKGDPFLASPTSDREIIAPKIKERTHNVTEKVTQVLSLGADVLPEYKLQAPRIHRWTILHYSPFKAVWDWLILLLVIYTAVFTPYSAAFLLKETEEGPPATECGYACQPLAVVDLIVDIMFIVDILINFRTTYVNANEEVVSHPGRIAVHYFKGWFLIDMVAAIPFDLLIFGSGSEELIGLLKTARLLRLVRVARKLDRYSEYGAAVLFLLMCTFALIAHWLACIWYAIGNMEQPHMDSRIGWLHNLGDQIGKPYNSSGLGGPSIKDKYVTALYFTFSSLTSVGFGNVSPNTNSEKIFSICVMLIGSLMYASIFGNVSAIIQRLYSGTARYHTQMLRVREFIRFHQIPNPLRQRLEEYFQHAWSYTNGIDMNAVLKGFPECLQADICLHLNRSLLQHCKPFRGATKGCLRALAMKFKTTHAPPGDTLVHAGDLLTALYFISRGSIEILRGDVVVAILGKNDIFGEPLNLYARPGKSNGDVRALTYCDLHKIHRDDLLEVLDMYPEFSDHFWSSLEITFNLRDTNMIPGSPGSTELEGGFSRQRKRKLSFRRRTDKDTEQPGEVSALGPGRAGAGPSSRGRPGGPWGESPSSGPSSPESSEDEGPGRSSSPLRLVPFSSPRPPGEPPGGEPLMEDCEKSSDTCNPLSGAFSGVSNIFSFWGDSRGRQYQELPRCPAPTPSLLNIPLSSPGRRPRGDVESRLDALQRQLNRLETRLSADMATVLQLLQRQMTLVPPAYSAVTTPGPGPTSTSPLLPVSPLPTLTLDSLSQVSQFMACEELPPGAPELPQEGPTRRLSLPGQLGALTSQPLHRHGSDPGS
assay.summary: hERG Q-Patch assay
Format: cell-based
applied.conditions: concentration 3000 nM; CHO cells expressing hERG; K+ tail current
Provide the reported % block of each item.
Give the value in % but do not write % after it.

Look up % block: `CCOc1ncc(-c2nc(C(F)(F)F)sc2N2CCN(C(=O)Cn3cnc(C)n3)[C@H](C)C2)cn1` 14

Look up % block: `CCOc1ncc(-c2nc(C(F)(F)F)sc2N2CCN(C(=O)Cn3cnc(C(C)C)n3)[C@H](C)C2)cn1` 20

Look up % block: `CC(C)c1ncn(CC(=O)N2CCN(c3sc(C(F)(F)F)nc3-c3cnc(C(F)(F)F)nc3)C[C@H]2C)n1` 24

Look up % block: `C[C@@H]1CN(c2sc(C(F)(F)F)nc2-c2cnc(C(F)(F)F)nc2)CCN1C(=O)Cn1cnc(C(N)=O)n1` 5

Look up % block: `CCCc1ncn(CC(=O)N2CCN(c3sc(C(F)(F)F)nc3-c3cnc(C(F)(F)F)nc3)C[C@H]2C)n1` 30

Look up % block: `C[C@@H]1CN(c2sc(C(F)(F)F)nc2-c2cnc(C(F)(F)F)nc2)CCN1C(=O)Cn1cnc(C(C)(C)C)n1` 23

Look up % block: `COCc1ncn(CC(=O)N2CCN(c3sc(C(F)(F)F)nc3-c3cnc(C4CC4)nc3)C[C@H]2C)n1` 22

Look up % block: `Cc1ncn(CC(=O)N2CCN(c3sc(C(F)(F)F)nc3-c3cnc(C4CC4)nc3)C[C@H]2C)n1` 17

Look up % block: `C[C@@H]1CN(c2sc(C(F)(F)F)nc2-c2cnc(C3CC3)nc2)CCN1C(=O)Cn1cnc(C(C)(C)C)n1` 23

Look up % block: CC(O)c1ncn(CC(=O)N2CCN(c3sc(C(F)(F)F)nc3-c3cnc(C(F)(F)F)nc3)C[C@H]2C)n1 (some centres unmarked) 4

Look up % block: `CCc1ncn(CC(=O)N2CCN(c3sc(C(F)(F)F)nc3-c3cnc(C4CC4)nc3)C[C@H]2C)n1` 27

Look up % block: `C[C@@H]1CN(c2sc(C(F)(F)F)nc2-c2cnc(C(F)(F)F)nc2)CCN1C(=O)Cn1cnc(C(C)(C)O)n1` 21

Look up % block: `C[C@@H]1CN(c2sc(C(F)(F)F)nc2-c2cnc(C(F)(F)F)nc2)CCN1C(=O)Cn1cnc(CO)n1` 17

Look up % block: `CCOc1ncc(-c2nc(C(F)(F)F)sc2N2CCN(C(=O)Cn3cnc(C(C)(C)C)n3)[C@H](C)C2)cn1` 20

Look up % block: `CCOc1ncc(-c2nc(C(F)(F)F)sc2N2CCN(C(=O)Cn3cnc(COC)n3)[C@H](C)C2)cn1` 10

Look up % block: `CC(C)c1ncn(CC(=O)N2CCN(c3sc(C(F)(F)F)nc3-c3cnc(C4CC4)nc3)C[C@H]2C)n1` 25

Look up % block: `COCc1ncn(CC(=O)N2CCN(c3sc(C(F)(F)F)nc3-c3cnc(C(F)(F)F)nc3)C[C@H]2C)n1` 11

* * *

tgt: CXCR3 (Homo sapiens (Human), UniProt P49682)
Sequence (P49682 whole entry): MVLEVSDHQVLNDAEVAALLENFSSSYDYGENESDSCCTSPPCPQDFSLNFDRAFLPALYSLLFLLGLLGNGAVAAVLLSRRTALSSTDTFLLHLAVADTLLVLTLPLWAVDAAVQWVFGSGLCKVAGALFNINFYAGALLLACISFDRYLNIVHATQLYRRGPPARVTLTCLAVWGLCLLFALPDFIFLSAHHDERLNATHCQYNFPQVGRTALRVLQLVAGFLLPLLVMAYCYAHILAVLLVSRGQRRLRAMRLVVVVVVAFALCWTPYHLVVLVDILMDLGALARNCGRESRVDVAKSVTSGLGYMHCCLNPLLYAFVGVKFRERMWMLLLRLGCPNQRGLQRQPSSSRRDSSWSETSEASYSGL
assay.summary: Receptor internalization assay (RIA) in human whole blood
applied.conditions: final CXCL10 9 nM, CXCR3 surface expression on CD4 positive cells
Provide the reported IC50 of each item.
Give the value in nM but do not write nM after it.

Look up IC50: `CC(C)c1ncn(CC(=O)N2CCN(c3sc(C(F)(F)F)nc3-c3cnc(C4CC4)nc3)C[C@H]2C)n1` 524

Look up IC50: `COCc1ncn(CC(=O)N2CCN(c3sc(C(F)(F)F)nc3-c3cnc(C(F)(F)F)nc3)C[C@H]2C)n1` 606

Look up IC50: `CCOc1ncc(-c2nc(C(F)(F)F)sc2N2CCN(C(=O)Cn3cnc(CC)n3)[C@H](C)C2)cn1` 235

Look up IC50: `Cc1ncn(CC(=O)N2CCN(c3sc(C(F)(F)F)nc3-c3cnc(C4CC4)nc3)C[C@H]2C)n1` 462

Look up IC50: `CCc1ncn(CC(=O)N2CCN(c3sc(C(F)(F)F)nc3-c3cnc(C(F)(F)F)nc3)C[C@H]2C)n1` 148

Look up IC50: `CC(C)c1ncn(CC(=O)N2CCN(c3sc(C(F)(F)F)nc3-c3cnc(C(F)(F)F)nc3)C[C@H]2C)n1` 174

Look up IC50: `CCOc1ncc(-c2nc(C(F)(F)F)sc2N2CCN(C(=O)Cn3cnc(COC)n3)[C@H](C)C2)cn1` 950

Look up IC50: `C[C@@H]1CN(c2sc(C(F)(F)F)nc2-c2cnc(C(F)(F)F)nc2)CCN1C(=O)Cn1cnc(C(C)(C)O)n1` 830

Look up IC50: `CCCc1ncn(CC(=O)N2CCN(c3sc(C(F)(F)F)nc3-c3cnc(C(F)(F)F)nc3)C[C@H]2C)n1` 221
